# System: interferon
# test.summary: Interferon induction in mice
# Assay type: in vivo
# test.conditions: mouse serum, oral 1 mg/kg, 4 hr
Kindly supply the reported Interferon induction in mice values for the records listed here.
Lab book: enter the figure in Reference Units/mL, no units written.

So for CCCCC(OC)c1nc2c(N)nc3ccccc3c2n1CC(C)C (centres unmarked) , the logged Interferon induction in mice turned out to be 97

Sample CCOCc1nc2c(N)nc3ccccc3c2n1CC(C)(C)O ; Interferon induction in mice observed: 460

###

# Tested on: Herpes simplex virus Type II strain 333
# test.summary: Antiviral activity in guinea pigs infected with Herpes simplex virus Type II (lesion inhibition)
# Type: in vivo
# test.conditions: oral once daily for four days, dose 2 mg/kg
readout.type: % Lesion Inhibition (%)
Answer with a number only, understood to be in %.

% Lesion Inhibition of CC(C)Cn1c(CN2CCCC2)nc2c(N)nc3ccccc3c21 , assay on Herpes simplex virus Type II strain 333, is 67

% Lesion Inhibition on Herpes simplex virus Type II strain 333 for CC(C)Cn1c(CN2CCOCC2)nc2c(N)nc3ccccc3c21 is 100

Form field, % Lesion Inhibition with Herpes simplex virus Type II strain 333, item CC(C)Cn1c(CO)nc2c(N)nc3ccccc3c21 : 37

# % Lesion Inhibition measured on Herpes simplex virus Type II strain 333 for item CC(C)Cn1c(C(C)O)nc2c(N)nc3ccccc3c21 (stereo not shown) = 100

###

I'd be grateful if you could share measured Interferon induction in mice for these entries.
# Test system: interferon
# test.summary: Interferon induction in mice
# Assay type: in vivo
# test.conditions: mouse serum, oral 30 mg/kg, 4 hr
Please make sure the unit comes right after the number.

Documented Interferon induction in mice of CC(C)Cn1c(CN2CCOCC2)nc2c(N)nc3ccccc3c21 [Example 12] : 40 Reference Units/mL

The compound listed as CC(C)Cn1c(CN=[N+]=[N-])nc2c(N)nc3ccccc3c21 [Example 11] shows Interferon induction in mice equal to 40 Reference Units/mL

For CC(C)Cn1c(CO)nc2c(N)nc3ccccc3c21 [Example 9] the compound record lists Interferon induction in mice as 4 Reference Units/mL

Form: compound = CC(C)Cn1c(C(C)(C)O)nc2c(N)nc3ccccc3c21 [Example 23] ; Interferon induction in mice = 140 Reference Units/mL

The reported Interferon induction in mice of the compound CC(C)Cn1c(C(C)O)nc2c(N)nc3ccccc3c21 (centres unmarked) [Example 20] was 320 Reference Units/mL

###

# Test system: interferon
# test.summary: Interferon induction in mice
# Format: in vivo
# test.conditions: mouse serum, oral 10 mg/kg, 1 hr
readout.type: Interferon induction in mice (Reference Units/mL)
Numeric answer only, unit Reference Units/mL assumed.

According to the records, this compound CC(C)(O)Cn1c(CO)nc2c(N)nc3ccccc3c21 [Example 90] displays Interferon induction in mice of 750

Interferon induction in mice reading for CC(C)Cn1c(CN2CCCC2)nc2c(N)nc3ccccc3c21 [Example 13] : 700

Interferon induction in mice recorded for this compound, CSCc1nc2c(N)nc3ccccc3c2n1Cc1ccccc1 [Example 31] , is 960

Just so you know, measured Interferon induction in mice for COCc1nc2c(N)nc3ccccc3c2n1Cc1ccccc1 [Example 104] came out at 3400

So for CCOCc1nc2c(N)nc3ccccc3c2n1CCCOC [Example 44] , the logged Interferon induction in mice turned out to be 1800

Quick note, Interferon induction in mice for COCc1nc2c(N)nc3ccccc3c2n1CC(C)(C)O [Example 96] landed at 2900

// field: Interferon induction in mice; key: CC(C)Cn1c(CN2CCOCC2)nc2c(N)nc3ccccc3c21 [Example 12] ; value = 850

Value of Interferon induction in mice reported for the compound COC(C)c1nc2c(N)nc3ccccc3c2n1CC(C)C (stereo not shown) [Example 66] is 1100

Recorded Interferon induction in mice (compound CCCCn1c(COCC)nc2c(N)nc3ccccc3c21 [Example 117] ): 1100

Where these numbers come from: patent US6465654B2
